We begin with a simple list: items and their reported kon.
- target under test: hPD-L1 (antigen of the Biacore assay) (human, UniProt Q9NZQ7 19-238, limits assumed)
- Sequence (Q9NZQ7 19-238 limits assumed): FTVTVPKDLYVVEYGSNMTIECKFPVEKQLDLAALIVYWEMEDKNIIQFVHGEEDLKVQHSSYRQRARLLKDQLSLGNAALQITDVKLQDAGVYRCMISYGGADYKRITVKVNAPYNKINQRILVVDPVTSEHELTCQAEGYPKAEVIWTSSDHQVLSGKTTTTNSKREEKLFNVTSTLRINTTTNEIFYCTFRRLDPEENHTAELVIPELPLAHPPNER
- test name: SPR (Biacore), antibody captured on anti-human Fc, antigen in flow
Use M⁻¹ s⁻¹ as the unit, but write only the number.

Enquiry: Tell me measured kon for 23A11-H3L3 (antibody, V domains shown, Humanized; also called humanized 23A11 H3L3) VH: LVQLVQSGAEVKKPGASVKLSCKASGYIFTTYWIHWVKQRPGQGLEWIGMIQPNSGGTKYNDQFKNRATLTVDKSISTAYMELSRLTSDDTAVYYCARGAGTVDYFDYWGQGTTLSISS VL: DIVLTQSPASLAVSVGQRATITCRASESVDIYGNSFMHWYQQKPGQSPKLLIYRASNLESGIPARFSGSGSRTDFTLTINPVEANDTATYYCHQSNDDPYTFGGGTKLETK please.
Return: 732000

Enquiry: Tell me measured kon for 23F11-H6L4 (antibody, V domains shown, Humanized; also called humanized 23F11 H6L4) VH: QVQLVQSGAEVKKPGASVKVSCKASGYIFTTYWMHWVRQAPGQGLEWIGMIQPNSGGTKYNEKFKKKATLTVDTSISTAYMELSRLRSDDTAVYYCARGAGTVDYFDYWGQGSTLTVSS VL: DIVLTQSPASLAVSVGQRATITCRASESVDIYGNSFMHWYQQKPGQPPKLLIYRASNLESGIPARFSGSGSRTDFTLTINPVEANDTATYYCQQSTEDPYTFGGGTKLEIK please.
Return: 435000

Enquiry: Tell me measured kon for 4B6-H3L3 (antibody, V domains shown, Humanized; also called humanized 4B6 H3L3) VH: QVQLVQSGAEVVKPGASVKISCKASGYVFTDYYMNWVKQAPGQGLEWIGDINPNNGGTSYNQKFQGRATVTVDKSTRTAYMELSRLRSDDTAVYYCVKWGDGPFAYWGQGTLVTVSS VL: DIQMTQSQSSLSASVGDRVTITCQASQNVGAAVAWYQQKPGKAPKLLIYSASNRYTGVPSRFSGSGSGTDFTLTISSMQPEDIATYFCQQYSNYPTFGSGTKLGIK please.
Return: 150000

Enquiry: Tell me measured kon for 18G4-chimeric (antibody, V domains shown, Mouse variable regions fused to a human IgG1 constant region) VH: QVQLQQPGTALVKPGASVKLSCKASGYTFSSYYIHWVKQRPGQGLEWIGNINPFNGGSIYNEKFKNKASLTVDTSSNTAYMQLSSLTSEDSAVYYCARWHFDYWGQGTSLTVSS VL: DIVMTQSPSSLAVTAGEKVTLKCKSSQSLLWSGNQNNYLSWYQQKQGQPPKLLIYGASIRESWVPDRFTGSGSGTDFTLTIGNVSAEDLAVYYCQHNHGSFLPYTFGGGTRLEIK please.
Return: 450000

Source: patent US20210009693A1
